These data points were gathered from patent US20230302148A1.

Measured In vitro activity relative to native peptide (%) vs. GLP-1 values are reported for all entries that follow.
Tested system: human GLP-1 receptor (human, UniProt P43220 24-463)
Protocol description: cell-based or functional assay
Bridges are numbered along the chain shown (N, C = ends). Where no end group is shown, it is not given here. [ ]: non-standard residue; d: D form. The star is where a group is joined. Acetyl(2-(4-imidazolyl)) = O=C(Cc1c[nH]cn1)*; Aib = CC(C)(N)C(=O)O
Measure name: In vitro activity relative to native peptide (%) vs. GLP-1

Binder	Recorded number
H[Aib]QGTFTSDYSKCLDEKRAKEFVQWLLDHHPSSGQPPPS (bridge 16-20) [triple agonist of SEQ ID NO: 65]	95.4
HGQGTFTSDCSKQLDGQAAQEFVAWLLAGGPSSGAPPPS [triple agonist of SEQ ID NO: 44]	1.3
{Acetyl(2-(4-imidazolyl))}-[Aib]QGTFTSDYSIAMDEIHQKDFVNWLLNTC (bridge 15-19) [triple agonist of SEQ ID NO: 87]	0.9
